Test system: EKVX NSCLC
METHOD: NCI-60 one-dose screen, 48 h (100 = growth as untreated, 0 = no growth, -100 = all killed)
TEST_PARAMETERS: 10 µM unless noted
About 83,000 compounds went through this panel and 20% of them were active in at least one assay; those are over-represented in the sample as a whole.
Would you kindly list growth for each of these molecules?
Write it as a number; the unit % goes unstated.

Specify reported growth for the molecule shown: C=C1c2c(C)nn(-c3ccc(S(N)(=O)=O)cc3)c2N(C)C23CC1C1(C)c4c(C)nn(-c5ccc(S(N)(=O)=O)cc5)c4N(C)C(C)(CC12)C3 (stereo not drawn)
29.6

Given Cc1cn(C2CCCCC2)c(=O)[nH]c1=O , respond with its growth.
121

Name the recorded growth of the item CCC(C)NCc1ccccc1 (stereo not drawn) in your answer.
103

Please indicate growth recorded for CC(C)OCCCNCC(=O)Nc1ccc(S(=O)(=O)c2ccc(NC(=O)CNCCCOC(C)C)cc2)cc1
101

Return growth for the following molecule: Cc1c2c(cn1Cc1ccccc1)CCc1cn[nH]c1-2
99.1

Name the recorded growth of the item C[C@@H]1CC[C@@H]2[C@@H]1[C@H](OC(=O)c1ccc3ccccc3c1)[C@]1(C3CCCCC3)C[C@@H](OC(=O)CO)[C@@]2(C)O1 in your answer.
62

Given the molecule Cc1cc(NS(=O)(=O)c2ccccc2)c(OS(=O)(=O)c2ccccc2)cc1C , write its reported growth.
104

Read the entry O=C1Nc2ccccc2/C1=N/N=C/c1ccsc1 and write its reported growth.
90.9
